test system: C. albicans wild-type, ΔCOS-1/ΔCOS-1, hemizygous and reconstituted strains; experiment: Sensitivity of C. albicans COS-1 strains to antifungal drugs in liquid RPMI medium (NCCLS M27-T); type: cell-based, Candida albicans
REPORTED ENDPOINT: Relative sensitivity of wild-type, ΔCOS-1/ΔCOS-1, hemizygous and reconstituted strains

[[record]]
compound = "C[C@@H]([C@H](N)C(=O)N[C@H](C(=O)O)[C@H]1O[C@@H](n2ccc(=O)[nH]c2=O)[C@H](O)[C@@H]1O)[C@H](O)c1ccc(O)cn1 [nikkomycin Z]"
meas_value = "equally sensitive"

[[record]]
compound = "C[C@@H]1[C@H](O)[C@@H](C)/C=C/C=C/C=C/C=C/C=C/C=C/C=C/[C@H](O[C@@H]2O[C@H](C)[C@@H](O)[C@H](N)[C@@H]2O)C[C@@H]2O[C@](O)(C[C@@H](O)C[C@@H](O)[C@H](O)CC[C@@H](O)C[C@@H](O)CC(=O)O[C@H]1C)C[C@H](O)[C@H]2C(=O)O [amphotericin B]"
meas_value = "equally sensitive"

